Value source: ChEMBL document CHEMBL1154186

Could you please report measured Activity for the items listed next?
target: Tyrosine-protein kinase CSK (Homo sapiens) (UniProt P41240); assay: Inhibition of CSK assessed as residual enzyme activity at 10 uM relative to untreated control
Sequence (P41240 2-450 limits assumed): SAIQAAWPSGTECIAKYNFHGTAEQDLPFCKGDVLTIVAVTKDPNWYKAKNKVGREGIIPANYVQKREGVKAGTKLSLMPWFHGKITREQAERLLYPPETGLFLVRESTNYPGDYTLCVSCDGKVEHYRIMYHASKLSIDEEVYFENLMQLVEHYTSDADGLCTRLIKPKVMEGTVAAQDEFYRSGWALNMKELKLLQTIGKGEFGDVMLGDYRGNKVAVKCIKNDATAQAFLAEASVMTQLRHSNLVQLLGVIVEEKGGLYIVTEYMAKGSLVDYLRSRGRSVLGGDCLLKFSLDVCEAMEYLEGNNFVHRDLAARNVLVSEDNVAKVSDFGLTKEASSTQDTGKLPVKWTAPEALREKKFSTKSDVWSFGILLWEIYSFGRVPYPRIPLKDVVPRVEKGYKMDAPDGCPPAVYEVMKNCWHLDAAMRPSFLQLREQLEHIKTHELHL
Numbers only; they are read as %.

Value lookup for Activity; key = O=Cc1c[nH]c2ccc3c4ccccc4[nH]c3c12
87

Value lookup for Activity; key = c1ccc2c(c1)[nH]c1c3cc[nH]c3ccc21
72

Value lookup for Activity; key = O=Cc1c[nH]c2c1ccc1c3ccccc3[nH]c12
74

Value lookup for Activity; key = c1ccc2c(c1)[nH]c1c2ccc2cc[nH]c21
98

----------
Could you please report measured Activity for the items listed next?
assay: Inhibition of CK2 assessed as residual enzyme activity at 10 uM relative to untreated control
Numbers only; they are read as %.

Value lookup for Activity; key = c1ccc2c(c1)[nH]c1c3cc[nH]c3ccc21
96

Value lookup for Activity; key = c1ccc2c(c1)[nH]c1c2ccc2cc[nH]c21
91

Value lookup for Activity; key = O=Cc1c[nH]c2ccc3c4ccccc4[nH]c3c12
98

Value lookup for Activity; key = O=Cc1c[nH]c2c1ccc1c3ccccc3[nH]c12
62

----------
target: Serine/threonine-protein kinase pim-3 (Homo sapiens) (UniProt Q86V86); assay: Inhibition of Pim-3 assessed as residual enzyme activity at 10 uM relative to untreated control
Could you please report measured Activity for the items listed next?
# do not omit the unit; it follows the number

Value lookup for Activity; key = O=Cc1c[nH]c2c1ccc1c3cc(-c4ccc(OC(F)(F)F)cc4)ccc3[nH]c12
31%

Value lookup for Activity; key = O=Cc1c[nH]c2ccc3c4ccccc4[nH]c3c12
102%

Value lookup for Activity; key = O=Cc1c[nH]c2c1ccc1c3cc(-c4ccc(-c5ccccc5)cc4)ccc3[nH]c12
48%

Value lookup for Activity; key = COc1cccc(-c2ccc3[nH]c4c(ccc5c(C=O)c[nH]c54)c3c2)c1
12%

Value lookup for Activity; key = c1ccc2c(c1)[nH]c1c3cc[nH]c3ccc21
29%

Value lookup for Activity; key = CCN(CC)C(=O)/C(=N\O)c1c[nH]c2c1ccc1c3ccccc3[nH]c12
21%

Value lookup for Activity; key = O=S(=O)(c1ccccc1)n1ccc2ccc3c4ccccc4[nH]c3c21
64%

----------
biological target: Serine/threonine-protein kinase pim-3 (Homo sapiens); assay: Inhibition of Pim-3 assessed as residual enzyme activity at 10 uM relative to untreated control
Activity strictly less than 20% = met. Otherwise not met.

Determine whether this molecule shows Activity lower than 20% (ties excluded): Brc1ccc2[nH]c3c(ccc4cc[nH]c43)c2c1
met

Determine whether this molecule shows Activity lower than 20% (ties excluded): O=Cc1c[nH]c2c1ccc1c3cc(-c4ccc(C(F)(F)F)cc4)ccc3[nH]c12
not met

Determine whether this molecule shows Activity lower than 20% (ties excluded): OCc1c[nH]c2c1ccc1c3ccccc3[nH]c12
met

Determine whether this molecule shows Activity lower than 20% (ties excluded): NC(=O)c1c[nH]c2c1ccc1c3ccccc3[nH]c12
met

Determine whether this molecule shows Activity lower than 20% (ties excluded): OCCc1c[nH]c2c1ccc1c3ccccc3[nH]c12
not met

Determine whether this molecule shows Activity lower than 20% (ties excluded): O=C(c1c[nH]c2c1ccc1c3ccccc3[nH]c12)C(F)(F)F
met

Determine whether this molecule shows Activity lower than 20% (ties excluded): O=Cc1c[nH]c2c1ccc1c3cc(-c4ccc(F)cc4F)ccc3[nH]c12
met

Determine whether this molecule shows Activity lower than 20% (ties excluded): c1ccc2c(c1)[nH]c1c2ccc2cc[nH]c21
not met

Determine whether this molecule shows Activity lower than 20% (ties excluded): O=Cc1c[nH]c2c1ccc1c3cc(Br)ccc3[nH]c12
met

Determine whether this molecule shows Activity lower than 20% (ties excluded): O=Cc1c[nH]c2c1ccc1c3cc(-c4ccc(F)cc4)ccc3[nH]c12
met

Determine whether this molecule shows Activity lower than 20% (ties excluded): O=Cc1c[nH]c2c1ccc1c3cc(-c4ccccc4)ccc3[nH]c12
met
